Quick reference: pEC50 of the listed items.
Target or system: T1, FcγRIIB protein (human, UniProt P31994 43-217, biotinylated (SureLINK Biotin Kit) in the ELISA of Example 1)
T1 construct: Soluble/recombinant antigen used in ELISA; also called bt-FcγRIIB; recombinant FcγRIIB protein
T1 sequence: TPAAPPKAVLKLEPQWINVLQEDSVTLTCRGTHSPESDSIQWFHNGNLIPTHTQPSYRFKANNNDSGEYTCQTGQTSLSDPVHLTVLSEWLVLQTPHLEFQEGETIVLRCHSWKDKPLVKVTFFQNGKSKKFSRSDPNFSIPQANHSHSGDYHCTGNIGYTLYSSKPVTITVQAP
Measurement description: ELISA; bt-FcγRIIB on streptavidin plate, purified FN3 domain titrated
Keep it numeric: pEC50 is minus log10 of the concentration in mol/L.

What the record says about R2BS39 (designed binder, expressed in E. coli BL21 and purified on nickel sepharose; also called R2BS39 FN3 domain) LPAPKNLVVSRVTEDSARLSWTAPDAAFDSFLIQYQESEKVGEAIVLTVPGSERSYDLTGLKPGTEYTVSIYGVSHGPWYNYGEWRSNPLSAIFTT : pEC50 is 6.38

What the record says about R2BS26 (designed binder, expressed in E. coli BL21 and purified on nickel sepharose; also called R2BS26 FN3 domain) LPAPKNLVVSRVTEDSARLSWTAPDAAFDSFPIAYIEYWTGGEAIVLTVPGSERSYDLTGLKPGTEYFVWIHGVKGGAWSSPLSAIFTT : pEC50 is 8.28

What the record says about R2BS12 (designed binder, expressed in E. coli BL21 and purified on nickel sepharose; also called R2BS12 FN3 domain; R2B12) LPAPKNLVVSRVTEDSARLSWTAPDAAFDSFLIAYAEYWEGGEAVVLTVPGSERSYDLTGLKPGTEYFVQINGVKGGFWSIPLSAIFTT : pEC50 is 7.37

What the record says about R2BS6 (designed binder, expressed in E. coli BL21 and purified on nickel sepharose; also called R2BS6 FN3 domain) LPAPKNLVVSRVTEDSARLSWTAPDAAFDSFLIQYQESEKVGEAIVLTVPGSERSYDLTGLKPGTEYTVSIYGVQYAAWYLPRHHEASNPLSAIFTT : pEC50 is 8.12

What the record says about R2BS56 (designed binder, expressed in E. coli BL21 and purified on nickel sepharose; also called R2BS56 FN3 domain; R2B56) LPAPKNLVVSRVTEDSARLSWTAPDAAFDSFSIAYWEYRKGGEAIVLTVPGSERSYDLTGLKPGTEYFVLIYGVKGGWQSKPLSAIFTT : pEC50 is 8.14

New cases:
What the record says about R2BS29 (designed binder, expressed in E. coli BL21 and purified on nickel sepharose; also called R2BS29 FN3 domain; R2B29) LPAPKNLVVSRVTEDSARLSWTAPDAAFDSFPIYYWEYRVGGEAIVLTVPGSERSYDLTGLKPGTEYFVYINGVKGGEESRPLSAIFTT : pEC50 is 8.45

What the record says about R2BS9 (designed binder, expressed in E. coli BL21 and purified on nickel sepharose; also called R2BS9 FN3 domain) LPAPKNLVVSRVTEDSARLSWTAPDAAFDSFWIYYLEYWRGGEAIVLTVPGSERSYDLTGLKPGTEYFVQIHGVKGGQYSYPLSAIFTT : pEC50 is 8.35
